# system: cellular cGAS activity in baculovirus-stimulated THP1-Dual cells (Homo sapiens (Human), UniProt Q8N884)
# Sequence (Q8N884 whole entry): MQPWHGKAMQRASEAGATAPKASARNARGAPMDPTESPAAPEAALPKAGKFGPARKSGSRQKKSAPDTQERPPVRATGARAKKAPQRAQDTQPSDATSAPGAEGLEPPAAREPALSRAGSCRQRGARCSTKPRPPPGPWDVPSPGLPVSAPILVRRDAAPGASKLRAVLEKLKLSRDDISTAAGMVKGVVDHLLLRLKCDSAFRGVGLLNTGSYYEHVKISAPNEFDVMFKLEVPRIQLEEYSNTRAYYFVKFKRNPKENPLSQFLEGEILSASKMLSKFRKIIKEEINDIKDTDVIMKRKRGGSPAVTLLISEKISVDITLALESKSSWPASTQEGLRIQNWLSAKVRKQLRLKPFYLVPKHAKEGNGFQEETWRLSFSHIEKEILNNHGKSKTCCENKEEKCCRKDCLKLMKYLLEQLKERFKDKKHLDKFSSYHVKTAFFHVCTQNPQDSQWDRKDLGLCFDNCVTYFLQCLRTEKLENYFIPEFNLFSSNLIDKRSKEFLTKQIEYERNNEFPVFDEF
# assay_method_text: Human cGAS cell assay (THP1(vir) IC50): IFN induction in virus-stimulated THP1-Dual cells, IRF Lucia luciferase reporter;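 further: Eight-point dilution series starting at 10 µM, 1% DMSO, 18 h at 37 °C, luminescence read-out, virus-free wells as 0% and DMSO-treated virus-stimulated wells as 100%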
# Type: cell-based
# measurement_setup: Table 1; virus-stimulated THP1 cells; read-out: THP(vir) IC50
parameter: pIC50
Expect pIC50 as a plain number equal to -log10 of the molar concentration.

Query string: Quickly give me recorded pIC50 for C[C@H]1CN2CC[C@]1(F)c1cc(Cl)cnc1O[C@H]1C[C@@H](C(=O)O)N(C1)c1nc(nc3c1oc1ccccc13)C(F)(F)CCCCCC2=O
Result string: 7.23

Query string: Give a short answer stating reported pIC50 for C[C@H]1CN2CC[C@]1(F)c1cc(Cl)cnc1O[C@H]1C[C@@H](C(=O)O)N(C1)c1nc(nc3c1oc1ccccc13)COCCCOC2=O .
Result string: 7.38

Query string: Determine its reported pIC50: COc1cc(-c2cnc3c(c2)[C@@]2(F)CCN(C[C@@H]2C)C(=O)CCCOCCc2nc(c4oc5ccccc5c4n2)N2C[C@H](C[C@H]2C(=O)O)O3)c(F)cn1
Result string: 7.74

Query string: Indicate the recorded pIC50 value for this molecule: C[C@H]1CN2CC[C@]1(F)c1cccnc1O[C@H]1C[C@@H](C(=O)O)N(C1)c1nc(nc3c1oc1ccccc13)CCCOCCC2=O
Result string: 6.19

Query string: Look up and report measured pIC50 for this entry: CC#Cc1cnc2c(c1)[C@@]1(F)CCN(C[C@@H]1C)C(=O)COCCCCc1nc(c3oc4ccccc4c3n1)N1C[C@H](C[C@H]1C(=O)O)O2
Result string: 7.24

Query string: Please report pIC50 for the following molecule: C[C@@H]1COCCCc2nc(c3oc4ccccc4c3n2)N2C[C@H](C[C@H]2C(=O)O)Oc2ncc(Br)cc2[C@@]2(F)CCN(C[C@@H]2C)C1=O
Result string: 7.34

----------
Entries and their measured IC50 follow.
# system: cellular cGAS activity in dsDNA-stimulated human whole blood (Homo sapiens (Human), UniProt Q8N884)
# assay_method_text: Human whole blood assay (hWB IC50): IFNα2a production after dsDNA transfection;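 further: IFNα-2a in plasma measured by MSD electrochemiluminescence immunoassay after 22 h at 37 °C, 8-point dilution series from 10 µM top concentration, DMSO wells as controls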
# Assay type: cell-based
# measurement_setup: Table 1; dsDNA-stimulated human whole blood
Only the number, expressed in µM, is required.

Query string: Please list IC50 recorded for the compound C[C@H]1CN2CC[C@]1(F)c1cccnc1O[C@H]1C[C@@H](C(=O)O)N(C1)c1nc(nc3c1oc1ccccc13)CCCOCCC2=O [Example 24]
Result string: 0.801

Query string: Give a short answer stating reported IC50 for C[C@H]1CN2CC[C@]1(F)c1cc(Cl)cnc1O[C@H]1C[C@@H](C(=O)O)N(C1)c1nc(nc3c1oc1ccccc13)CCCCOCC2=O [Example 27] .
Result string: 0.033

Query string: Retrieve IC50 measured for C[C@H]1CN2CC[C@]1(F)c1cc(Cl)cnc1O[C@H]1C[C@@H](C(=O)O)N(C1)c1nc(nc3c1oc1cc(F)ccc13)CCCCOCC2=O [Example 30] and print it.
Result string: 0.022

Query string: Recall and state the measured IC50 for C[C@H]1CN2CC[C@]1(F)c1cc(Cl)cnc1O[C@H]1C[C@@H](C(=O)O)N(C1)c1nc(nc3c1oc1ccccc13)CCCCCOC2=O [Example 22] .
Result string: 1.56

Query string: For the compound C[C@@H]1COCCCc2nc(c3oc4ccccc4c3n2)N2C[C@H](C[C@H]2C(=O)O)Oc2ncc(Br)cc2[C@@]2(F)CCN(C[C@@H]2C)C1=O [Example 26] , give its reported IC50.
Result string: 0.276

Query string: Supply IC50 value. Item: CC#Cc1cnc2c(c1)[C@@]1(F)CCN(C[C@@H]1C)C(=O)COCCCCc1nc(c3oc4ccccc4c3n1)N1C[C@H](C[C@H]1C(=O)O)O2 [Example 29]
Result string: 0.022

Query string: Check the records and state IC50 for C[C@H]1CN2CC[C@]1(F)c1cc(Cl)cnc1O[C@H]1C[C@@H](C(=O)O)N(C1)c1nc(nc3c1oc1ccccc13)C(F)(F)CCCOCC2=O [Example 31]
Result string: 0.005

Query string: For the compound C[C@H]1CN2CC[C@]1(F)c1cc(Cl)cnc1O[C@H]1C[C@@H](C(=O)O)N(C1)c1nc(nc3c1oc1ccccc13)COCCCC(F)(F)C2=O [Example 10] , report IC50.
Result string: 0.339

Query string: Using known records, supply IC50 for O=C(O)[C@@H]1C[C@H]2CN1c1nc(nc3c1oc1ccccc13)C(F)(F)CCCCCC(=O)N1CCC(F)(CC1)c1cc(Cl)cnc1O2 [Example 07]
Result string: 0.75

Query string: Fill in IC50 for record C[C@H]1CN2CC[C@]1(F)c1cc(Cl)cnc1O[C@H]1C[C@@H](C(=O)O)N(C1)c1nc(nc3c1oc1ccccc13)CCCOCC2=O [Example 37]
Result string: 0.011

Query string: Dear colleague, please send me the reported IC50 for C[C@H]1CN2CC[C@]1(F)c1cc(Cl)cnc1O[C@H]1C[C@@H](C(=O)O)N(C1)c1nc(nc3c1oc1ccccc13)COCCCCCC2=O [Example 12] when you can.
Result string: 0.084

Query string: Answer with reported IC50 of C[C@H]1CN2CC[C@]1(F)c1cc(Cl)cnc1O[C@H]1C[C@@H](C(=O)O)N(C1)c1nc(nc3c1oc1ccccc13)C(F)(F)OCCCCC2=O [Example 15]
Result string: 0.047
